System: Calu-3
Assay: cell viability relative to DMSO; higher = less toxic
Details: 72 h; 10 nM
endpoint: cell viability (%)
Respond numerically; units are % and should not be typed.

{"columns": ["compound", "target_under_test", "endpoint_result"],
 "data": [
  ["CC(=O)NC[C@H]1CN(c2ccc(-c3ccc(CNCc4cnn[nH]4)cc3)c(F)c2)C(=O)O1", "Calu-3", 97.6],
  ["O=S(=O)(O)c1ccc(O)cc1", "Calu-3", 103]
]}

If you can, please state the reported cell viability value of CCN(CC)C(=O)N[C@H]1C=C2c3cccc4[nH]cc(c34)C[C@H]2N(C)C1 [lisuride] .
88.6

Follow-up item: Cc1cc(C)cc(C(=O)N(C)[C@H](Cc2ccc(-c3ccccc3)cc2)C(=O)N[C@@H](Cc2c[nH]c3ccccc23)C(=O)O)c1
90.3

Follow-up item: CNc1nc(-c2ccc3c(N)n[nH]c3c2)cc(N2C[C@@H](C(=O)NC3CCCCC3)CC[C@H]2C)n1
93.3

Follow-up item: CC(=O)c1cc([N+](=O)[O-])c(Sc2cccc(Cl)c2Cl)s1
93.3

Follow-up item: O=c1c2ccccc2nc2n1CCc1c-2[nH]c2ccccc12
102

Follow-up item: COc1ccc(-c2cc(=O)c3c(O)cc(O)cc3o2)cc1O
104
